Notes on pIC50 obtained with PIK3CA (human) (UniProt P42336).
Sequence (P42336 whole entry, looked up): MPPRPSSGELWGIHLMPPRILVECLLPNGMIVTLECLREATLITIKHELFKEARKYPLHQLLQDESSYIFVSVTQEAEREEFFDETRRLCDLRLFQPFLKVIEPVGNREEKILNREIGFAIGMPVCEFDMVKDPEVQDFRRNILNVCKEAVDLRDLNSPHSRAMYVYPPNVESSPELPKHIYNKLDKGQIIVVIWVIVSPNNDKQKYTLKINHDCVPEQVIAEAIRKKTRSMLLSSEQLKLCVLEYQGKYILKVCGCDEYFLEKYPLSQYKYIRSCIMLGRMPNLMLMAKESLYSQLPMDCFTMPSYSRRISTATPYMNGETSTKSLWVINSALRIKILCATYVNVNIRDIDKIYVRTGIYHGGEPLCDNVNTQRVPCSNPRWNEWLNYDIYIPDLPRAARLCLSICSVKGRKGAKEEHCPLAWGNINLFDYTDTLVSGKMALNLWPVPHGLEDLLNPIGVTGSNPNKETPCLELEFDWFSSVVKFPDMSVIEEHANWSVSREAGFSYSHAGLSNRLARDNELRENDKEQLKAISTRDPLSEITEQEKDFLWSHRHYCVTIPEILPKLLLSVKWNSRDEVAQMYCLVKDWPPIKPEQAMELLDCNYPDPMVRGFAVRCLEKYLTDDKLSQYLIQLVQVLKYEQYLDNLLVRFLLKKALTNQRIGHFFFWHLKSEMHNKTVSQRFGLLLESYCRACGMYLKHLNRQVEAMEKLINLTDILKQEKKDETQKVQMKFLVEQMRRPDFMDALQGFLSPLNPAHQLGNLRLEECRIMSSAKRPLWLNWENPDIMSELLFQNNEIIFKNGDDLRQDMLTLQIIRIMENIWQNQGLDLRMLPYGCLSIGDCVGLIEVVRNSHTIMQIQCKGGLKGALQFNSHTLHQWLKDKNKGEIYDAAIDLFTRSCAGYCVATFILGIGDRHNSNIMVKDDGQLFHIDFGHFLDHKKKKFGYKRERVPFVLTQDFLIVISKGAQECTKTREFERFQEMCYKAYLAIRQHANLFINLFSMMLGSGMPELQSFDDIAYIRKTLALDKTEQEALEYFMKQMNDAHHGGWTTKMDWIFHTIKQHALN
pIC50: −log10 of the molar value.

Some compounds with recorded pIC50:
# Compound, Reading
rows = [
    ("Cc1nc2ccc(C(O)CO)cn2c1-c1nc(-c2ccccc2)c(-c2nnc[nH]2)s1 (stereo not given)", "> 7.00"),
    ("COCCCNc1cc(-c2sc(-c3nnc[nH]3)c(-c3ccc(Cl)cc3Cl)c2C#N)ccn1", "6.00 to 7.00"),
    ("CCOc1nc(-c2ccnc(NC(=O)c3ccc(N(C)C)cc3)c2)sc1-c1nnc[nH]1", "6.00 to 7.00"),
    ("CC(=O)Nc1cc(-c2sc(-c3ccn[nH]3)c(-c3ccc(Cl)cc3Cl)c2C#N)ccn1", "> 7.00"),
]

Shifting focus to the compound that follows.
Param item = Cc1nn2ccsc2c1-c1nc(-c2ccccc2)c(-c2nccs2)s1 ; retrieve measured pIC50. > 7.00
